Provenance of the data: paper PMC10488193

- PROTOCOL TEXT: Storage stability in solutions and hornbeam bark extracts (UHPLC-DAD)
- Assay type: physicochemical
- CONDITION PARAMETERS: 23 weeks, −15 °C, SA (aqueous solution)
Marks after values point to notes of the source that are not given here.
MEASURED METRIC: concentration as compared to the initial value

{"columns": ["MOLECULE", "OBSERVED RESULT"],
 "data": [
  ["O=C1CCC(=O)C(O)Cc2ccc(O)c(c2)-c2cc(ccc2O)C1 (stereo not shown) [Compound 4]", "99.9 ± 1.2 ^ab %"],
  ["O=C1CCc2ccc(O)c(c2)-c2cc(ccc2O)C[C@@H](O)[C@H](O)C1 [Compound 3, giffonin X]", "97.9 ± 2.9 ^bcd %"],
  ["O=C1CCc2ccc(O)c(c2)-c2cc(ccc2O)C[C@H](O)[C@H](O)[C@H]1O [Compound 2, carpinontriol B]", "99.1 ± 1.2 ^a %"]
]}

Kindly review the next molecule as well.
Measured concentration as compared to the initial value of O=C1C[C@H](O)[C@@H](O)Cc2ccc(O)c(c2)-c2cc(ccc2O)C[C@H]1O [Compound 1, carpinontriol A] : 93.7 ± 0.3 ^#efg %

* * *

Assignment: determine reported concentration as compared to the initial value for the given compounds.
- PROTOCOL TEXT: Storage stability in solutions and hornbeam bark extracts (UHPLC-DAD)
- Format: physicochemical
- CONDITION PARAMETERS: 23 weeks, 22 °C, SM (methanol solution)
Marks after values point to notes of the source that are not given here.

Recorded concentration as compared to the initial value, per entry:
{"columns": ["COMPOUND", "OBSERVED RESULT"],
 "data": [
  ["O=C1C[C@H](O)[C@@H](O)Cc2ccc(O)c(c2)-c2cc(ccc2O)C[C@H]1O", "32.3 ± 6.3 ^#h %"],
  ["O=C1CCc2ccc(O)c(c2)-c2cc(ccc2O)C[C@@H](O)[C@H](O)C1", "67.1 ± 7.5 %"],
  ["O=C1CCc2ccc(O)c(c2)-c2cc(ccc2O)C[C@H](O)[C@H](O)[C@H]1O", "99.9 ± 0.6 ^a %"]
]}

Alright, here's another compound for you.
The compound identified as O=C1CCC(=O)C(O)Cc2ccc(O)c(c2)-c2cc(ccc2O)C1 (stereo not shown) registered its concentration as compared to the initial value at 100.2 ± 0.5 ^ab %

* * *

- PROTOCOL TEXT: Storage stability in solutions and hornbeam bark extracts (UHPLC-DAD)
- Type: physicochemical
- CONDITION PARAMETERS: 12 weeks, 22 °C, EE (ethyl acetate extract of bark)
Marks after values point to notes of the source that are not given here.
MEASURED METRIC: concentration as compared to the initial value

{"columns": ["COMPOUND", "OBSERVED RESULT"],
 "data": [
  ["O=C1CCc2ccc(O)c(c2)-c2cc(ccc2O)C[C@@H](O)[C@H](O)C1", "101.6 ± 2.2 ^#bc %"]
]}

I need concentration as compared to the initial value for every entry listed below, if you could help.
1. O=C1CCc2ccc(O)c(c2)-c2cc(ccc2O)C[C@H](O)[C@H](O)[C@H]1O
2. O=C1C[C@H](O)[C@@H](O)Cc2ccc(O)c(c2)-c2cc(ccc2O)C[C@H]1O

[A]
1: 100.2 ± 0.7 ^a %; 2: 110.9 ± 3.6 ^#bc %

So for O=C1CCC(=O)C(O)Cc2ccc(O)c(c2)-c2cc(ccc2O)C1 (stereo not shown) , the logged concentration as compared to the initial value turned out to be 106.3 ± 2.6 %
